tested on: SK-MEL-28 melanoma; experiment: NCI-60 one-dose screen, 48 h (100 = growth as untreated, 0 = no growth, -100 = all killed); conditions: 10 µM unless noted
This is part of a sample that, as a whole, favours compounds with a hit. Of some 83,000 tested, about 20% had one in any assay.
So I've got a bunch of molecules here, and I need their growth values.
Answers are plain numbers, in %.

Consider the following illustrative entries.
smiles-data	readout-name	test-result
Cc1cc(NC(=O)NCc2ccc(N3C(N)=NC(N)=NC3(C)C)cc2)ccc1S(=O)(=O)F	growth	57.4
CCC(=O)Nc1ccc(Cl)c(Cl)c1	growth	102
CNC(=O)Oc1ccc(N(C)C)cc1C(C)C	growth	101
[Au+].[N-]=C=O.c1ccc(CN2[CH-]N(Cc3ccccc3)C(c3ccccc3)=C2c2ccccc2)cc1	growth	92.8

Next up:
Data request: Given the molecule CC(=O)c1ccc(C(=O)NCC2CCC3(CC2)OOC2(CCCCC2)OO3)cc1 , what is its reported growth?
Data returned: 95.5

====

tested on: HCC-2998 colon; test: NCI-60 one-dose screen, 48 h (100 = growth as untreated, 0 = no growth, -100 = all killed); details: 10 µM unless noted
Compounds without any hit were thinned out: in the full panel of roughly 83,000, 20% have a hit. The source made the active and inactive calls. The calls were made as follows: active = growth percent below 10; inactive = the rest.
So I've got a bunch of compounds here, and I need their growth values.

Consider the following illustrative entries.
smiles-data	target-or-system	growth
CC(C)[C@@H]1NC(=O)[C@]2(C)CSC(=N2)c2csc(n2)CNC(=O)C[C@@H](/C=C/CCS)OC1=O	HCC-2998 colon	-48% (active)
O=P(Oc1ccc(Cl)cc1)(N1CC1)N1CC1	HCC-2998 colon	88.5% (inactive)

Quick request: growth for each listed item, please.
1. Cc1cc(-c2nc3cc(F)ccc3[se]2)cc(F)c1N
2. COc1cc2c(cc1OCc1ccccc1)C(CC(C)C)=[N+](C)CC2

Data returned:
35.5% (inactive)
79% (inactive)

Quick request: growth for each listed item, please.
1. COc1ccc(C(=O)c2cc(OC)c(OC)c(OC)c2)cc1OC(C)=O
2. CCOC(=O)c1c(C)n(Cc2ccccc2)c2cc(CN(C)C)c(O)cc12
3. CN(C)C(=O)Oc1ccccc1-c1ccccc1
4. COc1ccc(O)c(CNC(=O)CN2CCCC2=O)c1
5. O=c1[nH]c2ccc([N+](=O)[O-])cc2c(=O)o1
6. CCCCCCCCCCCCCC[P+](CCCCCC)(CCCCCC)CCCCCC

Data returned:
["25.5% (inactive)", "55.4% (inactive)", "96.1% (inactive)", "98.6% (inactive)", "102% (inactive)", "-24.4% (active)"]

Data request: Given the compound COc1ccc(/C=C\c2cc(OC)c(OC)c(OC)c2)cc1NC(=O)/C=C/c1cc(OC)c(OC)c(OC)c1 , what is its reported growth?
Data returned: 91.2% (inactive)

====

tested on: EKVX NSCLC; assay: NCI-60 one-dose screen, 48 h; conditions: 10 µM unless noted
Compounds without any hit were thinned out: in the full panel of roughly 83,000, 20% have a hit. The source made the active and inactive calls. How the source made its calls: active means growth percent below 10; inactive means the rest.
One label from this list, please: 1 for active, 0 for inactive

Solved cases below.
compound	classification
CC(C)COC(C[N+](=O)[O-])C(Cl)(Cl)Cl (configuration not stated)	0
COC(=O)[C@@H](C)C[C@H](Cc1ccccc1)NC(=O)c1csc([C@@H](C[C@H](C(C)C)N(C)C(=O)[C@@H](NC(=O)[C@H]2CCCCN2C)c2ccc(F)cc2)OC(C)=O)n1	0
COc1cccc(/C=C/[N+](=O)[O-])c1	0
CCNc1nc(Cl)nc(NCC)n1	0
CC(=O)OC[C@]1(C)C=C2C(=O)[C@](C)(O)C3(CC3)C(C)=C2[C@H]1O	1

Data request: Could you please tell me the result logged for C[C@]12CC[C@H]3[C@@H](CC[C@]4(O)C[C@@H](O[C@@H]5O[C@H](CO)[C@@H](O[C@@H]6OC[C@@H](O)[C@H](O)[C@H]6O)[C@H](O)[C@H]5O)CC[C@]34C=O)[C@@]1(O)CC[C@@H]2C1=CC(=O)OC1 in this assay?
Data returned: 1

Data request: Could you please tell me the result logged for CNC12C3C4C1C1C2C3C41C(=O)N[C@H](C(=O)N(C)[C@H](C[C@@H](OC(C)=O)c1nc(C(=O)N[C@@H](Cc2ccccc2)C[C@H](C)C(=O)OC)cs1)C(C)C)C1CC1 (some centres not stated) in this assay?
Data returned: 0

====

system: UACC-62 melanoma; assay: NCI-60 one-dose screen, 48 h; details: 10 µM unless noted
Compounds without any hit were thinned out: in the full panel of roughly 83,000, 20% have a hit. The source made the active and inactive calls. The calls were made as follows: active = growth percent below 10; inactive = the rest.
One label from this list, please: active, inactive

compound	classification
C[C@]12C[C@@H](CO)[C@H](O)C[C@@H]1CC[C@@H]1[C@@H]2CC[C@]2(C)[C@@H](O)CC[C@@H]12	inactive

Data request: Could you please tell me the result logged for COc1ccc(/C=C\c2cc(OC)c(OC)c(OC)c2)c(NS(=O)(=O)c2ccc(Cl)cc2)c1O in this assay?
Data returned: inactive

Data request: Could you please tell me the result logged for CCOC(=O)[C@@H](C)C[C@H](Cc1ccccc1)NC(=O)c1nc([C@@H](C[C@H](C(C)C)N(C)C(=O)[C@@H](NC(=O)[C@H]2CCCCN2C)C(C)C)OC(C)=O)sc1CCOCc1ccccc1 in this assay?
Data returned: active

Data request: Could you please tell me the result logged for Clc1cccc(NCOOC2(OOCNc3cccc(Cl)c3)CCCCCC2)c1 in this assay?
Data returned: inactive

Data request: Could you please tell me the result logged for COC(=O)[C@@H](C)C[C@H](Cc1ccccc1)NC(=O)c1nc([C@@H](C[C@H](C(C)C)N(C)C(=O)[C@@H](NC(=O)[C@H]2CCCCN2C)C(C)C)OC(C)=O)sc1C(C)C in this assay?
Data returned: inactive

Data request: Could you please tell me the result logged for CCOc1ccc(/C=C/[N+](=O)[O-])cc1 in this assay?
Data returned: inactive

Data request: Could you please tell me the result logged for C[N+]12CN3CN(CN(C3)C1)C2 in this assay?
Data returned: inactive

Data request: Could you please tell me the result logged for OCCNC(Cc1ccccc1)c1ccc2c(c1)OCO2 (centres undefined) in this assay?
Data returned: inactive

Data request: Could you please tell me the result logged for CCOC(=S)S[C@H]1C[C@@H]2[C@H](CC[C@]3(C)C(=O)CC[C@@H]23)[C@@]2(C)CCC(=O)C=C12 in this assay?
Data returned: inactive

====

Tested on: RXF 393 renal
Assay: NCI-60 one-dose screen, 48 h (100 = growth as untreated, 0 = no growth, -100 = all killed)
Conditions: 10 µM unless noted
Method: Cells are grown in 96 well plates and exposed to the test compound for 48 hours. Compounds are tested at a single concentration, which is 10^-5 M for most compounds. The reported endpoint is percent growth (GI% or GIPRCNT), where numbers from 0 - 100% represent growth inhibition, and numbers from -100% - 0 represent cell death. For example, a value of 40 represents 60% growth inhibition. A value of 0 means no net growth occurred over the course of the experiment. […]
About 83,000 compounds went through this panel and 20% of them were active in at least one assay; those are over-represented in the sample as a whole. Activity calls are given as the source filed them. The calls were made as follows: active = growth percent below 10; inactive = the rest.
So I've got a bunch of molecules here, and I need their growth values.

Consider the following illustrative entries.
molecule	test-result
O=C(Nc1ccc([N+](=O)[O-])cc1)C(Cl)(Cl)Cl	116% (inactive)
CC[C@H](C)[C@H](NC(=O)C12C3C4C1C1C2C3C41NC)C(=O)N(C)[C@H](C[C@@H](OC(C)=O)c1nc(C(=O)N[C@@H](Cc2ccccc2)C[C@H](C)C(=O)OC)cs1)C(C)C (some centres not stated)	39.4% (inactive)
COC(=O)[C@@H](C)C[C@H](Cc1ccccc1)NC(=O)c1csc([C@@H](C[C@H](C(C)C)N(C)C(=O)[C@@H](NC(=O)[C@H]2CCCN2C)C2CC2)OC(C)=O)n1	81.3% (inactive)
CCCCCCCCCCCCCCCCCC1OC[C@H](COC(=O)O[C@@H](C(=O)O[C@H]2C[C@@]3(O)[C@@H](OC(=O)c4ccccc4)[C@@H]4[C@]5(OC(C)=O)CO[C@@H]5C[C@H](O)[C@@]4(C)C(=O)[C@H](OC(C)=O)C(=C2C)C3(C)C)[C@@H](NC(=O)c2ccccc2)c2ccccc2)O1 (some centres not stated)	65.2% (inactive)

Quick request: growth for each listed item, please.
1. Cc1cc(N(CCCl)CCCl)ccc1C=Nc1ccccc1-c1ccccc1
2. COc1ccc2c(c1)c(C1(O)CC(CSC#N)OC1=O)cn2C(=O)c1ccc(Cl)cc1 (configuration not stated)
3. CCN(CC)CCOC(=O)C(OC(C)C)(c1ccccc1)c1ccccc1

Data returned:
1. 45.5% (inactive)
2. 114% (inactive)
3. 98.5% (inactive)
